Experiment: Metabolic stability in dog liver microsomes assessed as unchanged compound level at 2 uM measured after 1 hr
Type: ADME, Canis lupus familiaris, Microsome
Conditions: read-out: Stability

{"input smiles": "FCC[C@H]1C[C@@H]1c1cncc(OC[C@@H]2CCN2)c1", "remaining at 1 h, 2 µM": "≥ 98%"}

====

Assay: Metabolic stability in rat liver microsomes assessed as unchanged compound level at 2 uM measured after 1 hr
Format: ADME, Microsome
Details: read-out: Stability

{"input smiles": "FCC[C@H]1C[C@@H]1c1cncc(OC[C@@H]2CCN2)c1", "remaining at 1 h, 2 µM": "≥ 98%"}

====

Target: Neuronal acetylcholine receptor; alpha4/beta2 (Homo sapiens, UniProt P17787+P43681)
Sequence (P17787 whole entry): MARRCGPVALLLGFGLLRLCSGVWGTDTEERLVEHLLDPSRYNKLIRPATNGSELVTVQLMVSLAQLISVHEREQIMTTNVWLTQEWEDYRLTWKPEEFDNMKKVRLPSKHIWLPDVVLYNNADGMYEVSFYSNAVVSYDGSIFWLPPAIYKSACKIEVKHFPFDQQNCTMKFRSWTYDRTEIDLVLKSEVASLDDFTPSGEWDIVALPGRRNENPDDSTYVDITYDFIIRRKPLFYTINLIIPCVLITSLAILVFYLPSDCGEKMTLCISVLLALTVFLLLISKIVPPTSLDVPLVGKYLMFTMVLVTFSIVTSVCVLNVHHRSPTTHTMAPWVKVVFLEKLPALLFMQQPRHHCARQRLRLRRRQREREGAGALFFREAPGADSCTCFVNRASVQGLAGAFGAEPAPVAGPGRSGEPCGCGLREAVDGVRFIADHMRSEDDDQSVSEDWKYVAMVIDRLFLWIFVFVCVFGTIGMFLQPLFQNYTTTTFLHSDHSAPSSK
Sequence (P43681 whole entry): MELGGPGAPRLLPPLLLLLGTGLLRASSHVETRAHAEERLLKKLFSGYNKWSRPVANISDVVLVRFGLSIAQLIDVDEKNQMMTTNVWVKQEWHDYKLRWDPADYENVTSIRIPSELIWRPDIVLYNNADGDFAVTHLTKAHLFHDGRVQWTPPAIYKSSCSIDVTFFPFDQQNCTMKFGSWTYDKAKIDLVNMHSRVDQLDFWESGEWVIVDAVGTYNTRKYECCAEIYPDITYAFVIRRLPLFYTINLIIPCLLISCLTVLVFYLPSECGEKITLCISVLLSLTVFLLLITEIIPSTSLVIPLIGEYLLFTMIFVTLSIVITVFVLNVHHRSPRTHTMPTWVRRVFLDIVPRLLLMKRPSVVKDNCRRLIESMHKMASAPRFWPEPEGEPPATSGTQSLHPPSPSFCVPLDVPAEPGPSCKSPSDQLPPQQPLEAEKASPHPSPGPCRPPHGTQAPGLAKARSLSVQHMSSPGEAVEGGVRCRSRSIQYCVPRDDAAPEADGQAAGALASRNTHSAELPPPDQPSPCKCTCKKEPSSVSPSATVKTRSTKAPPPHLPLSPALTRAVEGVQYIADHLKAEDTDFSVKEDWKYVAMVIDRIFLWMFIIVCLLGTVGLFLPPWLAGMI
Experiment: Antagonist activity at high sensitivity and low sensitivity alpha4beta2-nAChR expressed in human SH-EP1 cells assessed as inhibition of carbamylcholine-induced stimulation effect measured after 10 mins carbamylcholine challenge by 86Rb+ ion flux assay

{"input smiles": "FCC[C@H]1C[C@@H]1c1cncc(OC[C@@H]2CCN2)c1", "IC50 (nM)": 10.2}
{"input smiles": "CC[C@H]1C[C@@H]1c1cncc(OC[C@@H]2CCN2)c1", "IC50 (nM)": 22.2}
{"input smiles": "FC(F)C[C@H]1C[C@@H]1c1cncc(OC[C@@H]2CCN2)c1", "IC50 (nM)": 8.6}
